Every entry's value here was drawn from patent US20200239541A1.

Target: T1, ULBP1-Fc (R&D Systems) (human, UniProt Q9BZM6 26-216)
T1 construct: not shown: Fc of the bought reagent
T1 sequence (looked up): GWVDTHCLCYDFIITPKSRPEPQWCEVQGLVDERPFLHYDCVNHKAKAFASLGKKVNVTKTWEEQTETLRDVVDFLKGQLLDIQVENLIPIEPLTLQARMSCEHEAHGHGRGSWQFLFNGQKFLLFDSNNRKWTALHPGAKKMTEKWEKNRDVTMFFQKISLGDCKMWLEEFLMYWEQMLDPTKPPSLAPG
Test: ELISA, ligand-Fc coated, biotinylated NKG2D titrated
Property Measured: binding result

Binder: His-avitag natural NKG2D ectodomain, biotinylated (receptor, also called natural form of the ectodomain of NKG2D) EPHHHHHHGLNDIFEAQKIEWHENSLFNQEVQIPLTESYCGPCPKNWICYKNNCYQFFDESKNWYESQASCMSQNASLLKVYSKEDQDLLKLVKSYHWMGLVHIPTNGSWQWEDGSILSPNLLTIIEMQKGDCALYASSFKGYIENCSTPNTYICMQRTV
Property Measured: binding result
Result: binds
//
Binder: Y199A mutant NKG2D ectodomain (His-avitag, biotinylated) (receptor, not shown: N-terminal His-avitag) EPHHHHHHGLNDIFEAQKIEWHENSLFNQEVQIPLTESYCGPCPKNWICYKNNCYQFFDESKNWYESQASCMSQNASLLKVYSKEDQDLLKLVKSYHWMGLVHIPTNGSWQWEDGSILSPNLLTIIEMQKGDCALYASSFKGAIENCSTPNTYICMQRTV
Property Measured: binding result
Result: no binding
//
Binder: double Y152A plus Y199A mutant NKG2D ectodomain (His-avitag, biotinylated) (receptor, not shown: N-terminal His-avitag) EPHHHHHHGLNDIFEAQKIEWHENSLFNQEVQIPLTESYCGPCPKNWICYKNNCYQFFDESKNWYESQASCMSQNASLLKVYSKEDQDLLKLVKSAHWMGLVHIPTNGSWQWEDGSILSPNLLTIIEMQKGDCALYASSFKGAIENCSTPNTYICMQRTV
Property Measured: binding result
Result: no binding
//
Binder: Y152A mutant NKG2D ectodomain (His-avitag, biotinylated) (receptor, also called Y152A non-natural NKG2D receptor; not shown: N-terminal His-avitag) EPHHHHHHGLNDIFEAQKIEWHENSLFNQEVQIPLTESYCGPCPKNWICYKNNCYQFFDESKNWYESQASCMSQNASLLKVYSKEDQDLLKLVKSAHWMGLVHIPTNGSWQWEDGSILSPNLLTIIEMQKGDCALYASSFKGYIENCSTPNTYICMQRTV
Property Measured: binding result
Result: no binding
